Tested on: MCF7
Experiment: Antiproliferative activity against human MCF7/ADR cells assessed as reduction in cell viability after 48 hrs by MTT assay
Type: functional, cell-based
Conditions: MCF7, 48 h
pIC50: −log10 of the molar value.
recorded metric: pIC50

CC(C)=C/C=C\[C@H](C)[C@H]1CC[C@]2(C)C[C@@H]3C(C)=CC(=O)[C@H]3/C(C=O)=C\C[C@@H]12 :: 5.61

A. CCCCOC(=O)/C=C/[C@H](C)[C@H]1CC[C@]2(C)C[C@@H]3C(C)=CC(=O)[C@H]3/C(C=O)=C\C[C@@H]12
B. CCCCCCCCOC(=O)/C=C\C=C/[C@H](C)[C@H]1CC[C@]2(C)C[C@@H]3C(C)=CC(=O)[C@H]3/C(C=O)=C\C[C@@H]12
Ask: Sorting by pIC50 in descending order, would A or B appear first? Field: selected label. Fill in the label of the entry you choose.
Reply: B
(B: 6.01, A: 5.77)

Hey, just so you know, these numbers are from ChEMBL document CHEMBL5042519.
